Hey, just so you know, these numbers are from PubChem BioAssay (NCATS).

- Test name: qHTS Screen of the MIPE 4.0 Collection Against Ewings Sarcoma (EW8) (AID 1259255); also: nearly all actives have a fitted effect of over 35% in size;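 as to viability: 100% = DMSO-treated cells and 0% = medium-only wells without cells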
- Conditions used: EW8 Ewing sarcoma viability, CellTiter-Glo, 48 h; series mostly up to 45.8 µM
Records with an inconclusive call do not appear. Active and inactive are the calls of the source. Calls follow the shape of the dose curve; as a rule, active = well fitted inhibition curve with a large enough effect; inconclusive = small, poorly fitted or top-dose-only effect; inactive = no such curve, though single readings can be large or run the other way.
Returns: one label drawn from active, inactive

For orientation, consider the following solved cases.
*Q* Tell me the assay call for N#CC(c1ccnc(NCCc2cccnc2)n1)c1nc2ccccc2s1 (stereo not drawn) please.
*A* active

*Q* What was the test verdict on CCCC1OC2C[C@@H]3[C@H]4CCC5=CC(=O)C=C[C@]5(C)[C@H]4C(O)C[C@]3(C)[C@]2(C(=O)CO)O1 (stereo partly drawn) ?
*A* active

*Q* For `COc1cc(F)c(C(C)C)cc1-c1ccc(C(F)(F)F)cc1CN1C(=O)O[C@H](c2cc(C(F)(F)F)cc(C(F)(F)F)c2)[C@@H]1C` , what call appears in the results of this test?
*A* inactive

---
*Q* Tell me the assay call for `N[C@@H](CC(=O)N1CCn2c(nnc2C(F)(F)F)C1)Cc1cc(F)c(F)cc1F` please.
*A* active

*Q* Outcome logged for `CC(C)=CCCC(C)=CCCC(C)=CCCC(C)=CCCC(C)=CCCC(C)=CCCC(C)=CCCC(C)=CCCC(C)=CCO` in this assay:
*A* inactive

====

- Test name: qHTS of pediatric cancer cell lines to identify multiple opportunities for drug repurposing: Primary screen for SK-N-SH cells (AID 1347098); also: nearly all actives have a fitted effect of over 65% in size
- Conditions used: SK-N-SH viability, CellTiter-Glo luminescence, 48 h; series mostly up to 57 µM
- Method: Drug repurposing or repositioning has been offered as a strategy for drug development in oncology programs. […] [1] Shen, M et al. Quantitative high-throughput phenotypic screening of pediatric cancer cell lines identifies multiple opportunities for drug repurposing. […] Cells were assayed in growth media at a density of 500-1,000 cells/well. […] After a 15 min incubation at room temperature, samples were analyzed for luminescence intensity using a ViewLux High-throughput CCD imager equipped with clear filters.
Results filed as inconclusive are left out. Activity calls are given as the source filed them. The call rests on the fitted dose curve; in most records, active means well fitted cell-killing curve with a large enough effect; inconclusive means small, poorly fitted or top-dose-only effect; inactive means no such curve, though single readings can be large or run the other way.
// allowed return values: active, inactive

*Q* What was the test verdict on `Cn1cnc(-c2cc3nccc(Oc4ccc(NC(=S)NC(=O)Cc5ccccc5)cc4F)c3s2)c1` ?
*A* active

*Q* Identify the outcome logged in this assay for the molecule shown: `CN1CC(=O)NC1=NC(=O)Nc1cccc(Cl)c1`
*A* active

*Q* Which result was noted for this molecule in the test: `Cc1ccc2c(=O)c3cccc(CC(=O)O)c3oc2c1C`
*A* active

*Q* Please let me know the test result on file for `CC1(C)[C@H]2CC[C@]3(C)[C@@H](C(=O)C=C4[C@@H]5C[C@@](C)(C(=O)O)CC[C@]5(C)CC[C@]43C)[C@@]2(C)CC[C@@H]1O` .
*A* inactive

*Q* Kindly provide the recorded test outcome for the following molecule: `CNC(=O)c1ccc2c(C(=Nc3cccc(CN(C)C)c3)c3ccccc3)c(O)[nH]c2c1`
*A* active

*Q* Name the outcome recorded for `COC(=O)N1CCN(Cc2cccc(NC(=O)Nc3ccc(C)nc3)c2F)CC1` in the assay.
*A* inactive

*Q* // return assay outcome for `CCCCC[C@H](O)C=C[C@H]1[C@H](O)CC(=O)[C@H]1CC=CCCCC(=O)O`
*A* inactive

*Q* I would be grateful if you could indicate the recorded call for `N=C1SC(=Cc2ccc(-c3ccc4c(c3)C(=O)NC4=O)o2)C(=O)N1c1ccc(Br)cc1` .
*A* inactive

For the next question, use this molecule.
*Q* Entry `CC(C)(O)CC(=O)NCCn1ccc2ncnc(Nc3ccc(Oc4cccc(C(F)(F)F)c4)c(Cl)c3)c21` : call = ?
*A* active

====

- Test name: qHTS for identification of novel therapeutic agents for treatment of microphthalmiaassociated transcription factor (MiT) renal cell carcinoma (RCC) (AID 1963991);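 also: curves scaled with 100% = DMSO viability and 0% = empty wells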
- Conditions used: TFE3-RCC viability, CellTiter-Glo, 48 h; measured here: UOK124 Z-AUC; stronger effect = lower value
- Description: PI: Marston Linehan Ph.D. Urologic Oncology Branch, Center for Cancer Research (CCR) National Cancer Institute (NCI), National Institute of Health (NIH), Bethesda, Maryland […] 6; Detection; Luminescence; ViewLux plate reader (PerkinElmer). […] 1. Quantitative high-throughput screening (qHTS) of 1912 pharmacologically defined small molecule compounds was conducted on three TFE3-fusion cell lines bearing three different fusion partners (UOK109, UOK124, UOK145). […]
Inconclusive results are not listed.
Listing of recorded z-score by entry.
Provide a numeric answer; units are not to be included.

Here's what some known entries look like.
*Q* Quick one: z-score of `CN(C)c1nc(Cc2ccc(NC(=O)c3ccc(C(F)(F)F)cc3)cc2)nc(N(C)C)c1CC(=O)O` ?
*A* 0.491

*Q* What z-score value was documented for this molecule, `COc1cc2c(cc1OC)[C@@H]1Cc3ccc(OC)c(OC)c3CN1CC2` ?
*A* 0.474

*Q* What does the record list as z-score for `COc1ccc2c(c1)CC[C@H]1[C@@H]2CC[C@]2(C)[C@@H](NCCCCCCN3C(=O)C=CC3=O)CC[C@H]12` ?
*A* 0.647

*Q* Please report the recorded z-score for `CCOC(=O)[C@@H](N)CCC(=O)N[C@@H](CSCc1ccccc1)C(=O)N[C@@H](C(=O)OCC)c1ccccc1` .
*A* 0.492

*Q* May I ask what z-score has been recorded for O=C(O)C1=CC(O)C(O)[C@H](O)C1 (some centres not stated) ?
*A* 0.866

*Q* Data request, read-out z-score, for `C[C@@H](O)[C@H]1C(=O)N2C(C(=O)OCOC(=O)C(C)(C)C)=C(SC3CN(C4=NCCS4)C3)[C@H](C)[C@H]12`
*A* -0.138

Others:
*Q* Given the entry CC(NCCc1ccc(O)cc1)C(O)c1ccc(O)cc1 (configuration not stated) , report its measured z-score.
*A* 0.96

*Q* Entry under review: `C=C1c2cccc(O)c2C(O)=C2C(=O)[C@@]3(O)C(O)=C(C(N)=O)C(=O)[C@@H](N(C)C)[C@@H]3[C@@H](O)[C@H]12` . Reported z-score?
*A* 0.336

*Q* Could you share which z-score value was measured for `C[C@]12CCC3=C4CCC(=O)C=C4CC[C@@H]3[C@H]1CC[C@@]2(O)CC#N` ?
*A* 0.709

*Q* Return reported z-score; argument: `CN1C(=O)C[C@H](C(=O)N[C@@H](Cc2cnc[nH]2)C(=O)N2CCC[C@@H]2C(N)=O)NC1=O`
*A* 0.308

*Q* Reported z-score, molecule `C[C@]12C=CC(=O)C=C1CC[C@@H]1[C@@H]2[C@@H](O)C[C@@]2(C)[C@@H]1CC[C@]2(O)C(=O)CO` : ____
*A* 0.34

*Q* What measured z-score goes with `O=C1NC(=O)C(c2cnc3ccccn23)=C1c1cn2c3c(cccc13)CN(C(=O)N1CCOCC1)CC2` ?
*A* -1.78

*Q* # lookup: z-score of `C=CC[N+]1([C@H]2C[C@H]3[C@@H]4CC[C@H]5C[C@H](O)[C@@H](N6CCOCC6)C[C@]5(C)[C@@H]4CC[C@]3(C)[C@H]2OC(C)=O)CCCC1`
*A* 0.675

*Q* Give its z-score value. Item: `Cc1nc2c([nH]1)CCN(C(=O)c1ccc(NC(=O)c3ccccc3-c3ccccc3)cc1)c1ccccc1-2`
*A* 0.486

====

- Test system: CP268
- Test name: qHTS profiling for inhibitors of Plasmodium falciparum proliferation (AID 504749);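 also: 0% = DMSO vehicle and full inhibition = artemisinin control; nearly all actives have a fitted effect of over 60% in size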
- Conditions used: P. falciparum in erythrocytes, SYBR Green DNA, 72 h; series mostly up to 28.7 µM
Records with an inconclusive call do not appear. Active and inactive are the calls of the source. Calls come from the whole dose curve; as a rule, active = well fitted inhibition curve with a large enough effect; inconclusive = small, poorly fitted or top-dose-only effect; inactive = flat fitted curve, though single readings scatter.
Measured metric: outcome

Answered examples (5):
*Q* Endpoint output: outcome of `CS(=O)(=O)c1ccc(C2=C(c3ccccc3)C(=O)OC2)cc1` . Value?
*A* inactive

*Q* Recorded outcome of CN1CCN2c3ncccc3Cc3ccccc3C2C1 (stereo not given) , please.
*A* inactive

*Q* I'd like to know its outcome. The compound in question is N#CC(c1ccc(Cl)cc1)c1c(Cl)cc(-n2ncc(=O)[nH]c2=O)cc1Cl (stereo not given)
*A* inactive

*Q* Record request: outcome value, item `O=C(O)c1nc(=O)[nH]c(=O)[nH]1`
*A* inactive

*Q* Requested field: outcome. Item: `CC(C)CN(C[C@@H](O)[C@H](Cc1ccccc1)NC(=O)O[C@H]1CO[C@H]2OCC[C@H]21)S(=O)(=O)c1ccc(N)cc1`
*A* inactive

Others:
*Q* Requested field: outcome. Item: O=C1C(CCC(O)c2ccc(F)cc2)C(c2ccc(O)cc2)N1c1ccc(F)cc1 (stereo not given)
*A* inactive

*Q* Item under review: `C=C1c2cccc(O)c2C(O)=C2C(=O)[C@@]3(O)C(O)=C(C(N)=O)C(=O)[C@@H](N(C)C)[C@@H]3[C@@H](O)[C@H]12` . Reported outcome?
*A* inactive
